Source of measurements: PubChem BioAssay (NCATS)

Below is a list of entries, each paired with its recorded activity change, negative = inhibition value.
test_protocol: qHTS Assay for Lipid Storage Modulators (AID 1519); further: on the % scale 0 is the no-effect control and ±100 the full control effect
run_conditions: Drosophila S3 cells, BODIPY lipid droplet/cell ratio, laser cytometry; at 57.5 µM (top of the series); cells loaded with oleic acid
Records with an inconclusive call do not appear.
assay_readout: activity change, negative = inhibition (%)

- line_notation: "COc1cccc(-c2ccc3ncnc(NCc4ccccc4)c3c2)c1"
  experimental_value: -5.64
- line_notation: "COc1ccccc1CNc1nc(-c2c(C)noc2C)nc2ccccc12"
  experimental_value: 7.14
- line_notation: "COCCNc1cc(-c2ccccc2CN(C)C)ncn1"
  experimental_value: 4.45
- line_notation: "FC(F)(F)c1ccccc1-c1cc(NCCN2CCOCC2)ncn1"
  experimental_value: 5.67
- line_notation: "Cc1noc(C)c1-c1cc(N2CCNCC2)ncn1"
  experimental_value: 5.16
- line_notation: "Cn1cc(-c2nc3cnc(Oc4ccccc4)nc3n(C3CC3)c2=O)c2ccccc21"
  experimental_value: 1.27
- line_notation: "O=c1c(CCc2ccccc2)nc2cnc(N3CCNCC3)nc2n1Cc1ccc(F)cc1"
  experimental_value: 2.57
- line_notation: "COc1ccccc1-c1cc(NCc2cccnc2)ncn1"
  experimental_value: 4.96
- line_notation: "O=C(Nc1cccc(F)c1)N1CC[C@@]2(CCCN(C(=O)c3ccco3)C2)C1"
  experimental_value: 0.339
- line_notation: "O=c1c(-c2cc(F)cc(F)c2)nc2cncnc2n1-c1ccccc1"
  experimental_value: 6.93
- line_notation: "COc1ccc(-c2nc3cnc(Oc4cccc(Cl)c4)nc3n(CCC#N)c2=O)cc1"
  experimental_value: 2.97
- line_notation: "CN(C)c1ncnc2ccc(-c3ccccc3C#N)cc12"
  experimental_value: 8.38
- line_notation: "CN(C)Cc1ccccc1-c1nc(N(C)C)c2ccccc2n1"
  experimental_value: -2.91
- line_notation: "O=c1c(-c2ccc(F)cc2)nc2cnc(Oc3cccc(Cl)c3)nc2n1C1CC1"
  experimental_value: 0.37
- line_notation: "CN1CCN(c2ncc3nc(CCc4ccccc4)c(=O)n(C4CC4)c3n2)CC1"
  experimental_value: 1.8
- line_notation: "O=C(c1csnn1)N1CCC2(CC1)CN(Cc1cc(C(F)(F)F)cc(C(F)(F)F)c1)C2"
  experimental_value: -4.63
- line_notation: "N#Cc1cccc(NC(=O)N2CC[C@@]3(CCCNC3)C2)c1"
  experimental_value: 1.94
- line_notation: "CN(C)C(=O)c1ccc(-c2cc(NCc3cccnc3)ncn2)cc1"
  experimental_value: 3.91
- line_notation: "O=C(Nc1cccc(F)c1)N1CCCC2(CCN(C(=O)c3ccncc3)CC2)C1"
  experimental_value: 6.14
- line_notation: "Cc1ccccc1-c1cc(N2CCN(C)CC2)ncn1"
  experimental_value: -4.37
- line_notation: "COc1ccccc1CCn1c(=O)c(-c2cc(F)cc(F)c2)nc2cncnc21"
  experimental_value: 6.22
- line_notation: "O=C(Nc1ccccc1)N1CC[C@@]2(CCCN(C(=O)c3ccco3)C2)C1"
  experimental_value: 0.607
- line_notation: "Cc1noc(C)c1C(=O)N1CCC2(CCCN(C(=O)Nc3cccc(F)c3)C2)CC1"
  experimental_value: 5.45
